Assay: Lipophilicity was determined
Format: physicochemical
Settings: octanol/water
MEASURE: logD

{"SMILES_REPRESENTATION": "CCCc1nn(C)c2c(=O)[nH]c(-c3cc(S(=O)(=O)N4CCN(CCO)CC4)ccc3OCC)nc12", "logD": 2}
{"SMILES_REPRESENTATION": "CCCc1nn(C)c2c(O)nc(-c3cc(S(=O)(=O)N4CCN(C(N)=O)CC4)ccc3OCC)nc12", "logD": 2.3}

(A) CCCc1nn(C)c2c(=O)[nH]c(-c3cc(S(=O)(=O)N4CCN(C)CC4)ccc3OCC)nc12
(B) CCCc1nn(C)c2c(=O)[nH]c(-c3ccccc3OCC)nc12
(C) CCCc1nn(C)c2c(=O)[nH]c(-c3cc(S(=O)(=O)N4CCNCC4)ccc3OCC)nc12
[in] Rank items: key logD, increasing. Arrange the labels as the request states and list them.
[out] C, A, B
